System: Escherichia coli TOP10;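 also: peptides expressed intracellularly from a pBAD plasmid library in pooled LB shake-flask culture, induced with 0.3% L-arabinose, DNA abundance read by NGS, three biological replicates, DESeq2 with apeglm shrinkage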
Assay: shrunken log2 fold change of peptide-encoding DNA abundance (4.5 h post-induction vs induction); higher = less antimicrobial activity (less host growth inhibition)
Conditions: time post-induction: 4.5 h; library: site-saturation at positions 5, 18, 19, 20
Short version: shrunken log2 fold change at least -0.1 is Yes, less is No.

[
  {
    "construct sequence": "RRIRNRPPRLPRPRPRPICTPRP",
    "discrete label": "No"
  },
  {
    "construct sequence": "RRIRERPPRLPRPRPRPGQEPRP",
    "discrete label": "Yes"
  },
  {
    "construct sequence": "RRIRGRPPRLPRPRPRPTFNPRP",
    "discrete label": "Yes"
  },
  {
    "construct sequence": "RRIRVRPPRLPRPRPRPPHSPRP",
    "discrete label": "Yes"
  },
  {
    "construct sequence": "RRIRFRPPRLPRPRPRPVVNPRP",
    "discrete label": "Yes"
  }
]

Now look at this entry.
Request: Hello, I need to know if `RRIRYRPPRLPRPRPRPVYGPRP` has measured shrunken log2 fold change not below -0.1. Thanks!
Response: Yes
